Please provide measured TGI for the entries that follow.
- Tested on: NCI-H522 lung
- protocol_details: NCI tumour cell line growth inhibition, 48 h
Give bare numbers, in µM.

In [3]: df
Out[3]:
                               given_smiles  unit_abbreviation  endpoint_result
0  CC(=O)[CH-]C(=O)c1ccccc1.CC(=O)[CH-]C(=O)c1ccccc1.Cc1cc([O-])ccc1Cl.Cc1cc([O-])ccc1Cl.[Ti+4]                 µM             34.7

Working through the 2 compounds below one at a time, give TGI for each.
1. Clc1ccccc1CNc1c2ccccc2nc2ccccc12
2. C/C(=C\c1cc(C(F)(F)F)n(-c2ccc(N)cc2)n1)[C@@H]1C[C@@H]2O[C@]2(C)CCC[C@H](C)[C@H](O)[C@@H](C)C(=O)C(C)(C)[C@@H](O)CC(=O)O1

Output:
1: 21.3; 2: 0.0839
